- Tested on: NLRP3
- method description: IL-1β secretion assay in PMA-differentiated, LPS/nigericin-stimulated THP-1 cells (384-well, ELISA read-out)
- Format: cell-based, human
- test context: Table 4; IL-1β secretion, LPS/nigericin-stimulated THP-1 cells; read-out: IC50
experimental endpoint: IC50 (nM)
Answer in nM, number only, no unit symbol.

## Input Please give the measured IC50 for this compound: O=C(CN1C[C@@]2(C[C@@H]2Cl)c2cc(Br)ccc2C1=O)Nc1ncc(F)cn1 (single isomer, unassigned) [Example 283]
## Output 101

## Input Could you do the same for O=C(CN1CC(C(F)F)c2c(ccc(Br)c2F)C1=O)Nc1ncc(F)cn1 (single isomer, unassigned) [Example 296] , please?
## Output 345

## Input Could you do the same for O=C(CN1CC(CF)c2cc(Br)ccc2C1=O)Nc1ncc(F)cn1 (single isomer, unassigned) [Example 293] , please?
## Output 134

---

- System: NLRP3
- method description: IL-1β secretion assay in PMA-differentiated, LPS/nigericin-stimulated THP-1 cells (384-well, ELISA read-out)
- Assay type: cell-based, human
- test context: Homo sapiens, THP-1, Table 4; IL-1β secretion, LPS/nigericin-stimulated THP-1 cells; read-out: IC50
Each entry below lists one item and its recorded pIC50 value.
// pIC50 is dimensionless: -log10 of concentration (M)

// solved cases for pIC50 follow
| compound | tested on | experimental endpoint | value observed |
| --- | --- | --- | --- |
| O=C(CN1C[C@]2(C[C@H]2F)c2cc(C3CC3)ccc2C1=O)Nc1ncc(F)cn1 | NLRP3 | pIC50 | 7.30 |
| O=C(CN1C[C@]2(C[C@H]2F)c2c(ccc(Br)c2F)C1=O)Nc1ncccn1 (single isomer, unassigned) | NLRP3 | pIC50 | 6.90 |
| O=C(CN1CC2(CC2)c2cc(Br)ccc2C1=O)Nc1ccccc1 | NLRP3 | pIC50 | 5.78 |
| O=C(CN1CC2(CC2)c2cc(Br)ccc2C1=O)NCC1(CC(F)F)CCC1 | NLRP3 | pIC50 | 4.89 |
| O=C(CN1CC2(CC2)c2cc(Br)ccc2C1=O)Nc1ccc(F)cn1 | NLRP3 | pIC50 | 6.15 |

## Input Please give the measured pIC50 for this compound: CC(F)(F)c1ccc2c(c1)C1(CC1)CN(CC(=O)Nc1ncc(F)cn1)C2=O
## Output 6.17

## Input Could you do the same for O=C(CN1C[C@]2(C[C@H]2F)c2cc(Br)ccc2C1=O)Nc1ncc(C(F)(F)F)cn1 , please?
## Output 7.60

## Input Could you do the same for O=C(CN1CC2(CC2)c2cc(Br)ccc2C1=O)Nc1ncc(Cl)cc1F , please?
## Output 6.67

## Input Could you do the same for O=C(CN1CC2(CC2)c2c(ccc(I)c2F)C1=O)Nc1ncc(F)cn1 , please?
## Output 7.74

## Input Could you do the same for O=C(CN1CC2(CC2)c2cc(Br)ccc2C1=O)Nc1cccn2ccnc12 , please?
## Output 5.44

## Input Could you do the same for O=C(CN1C[C@]2(C[C@H]2F)c2cc(I)ccc2C1=O)Nc1ncccn1 , please?
## Output 8.00

## Input Could you do the same for O=C(CN1CC2(CC2)c2cc(Br)ccc2C1=O)Nc1nc2n(n1)CCCC2 , please?
## Output 5.80

## Input Could you do the same for O=C(CN1CC2(CC2)c2cc(Br)ccc2C1=O)Nc1nc2ncccc2o1 , please?
## Output 5.45

## Input Could you do the same for O=C(CN1CC2(CC2)c2cc(Br)ccc2C1=O)Nc1ncc(C(F)F)cc1F , please?
## Output 6.11
